TARGET OF ASSAY: PARG in HeLa cell line (Homo sapiens (Human))
ASSAY NAME: PARG cell assay (nuclear PAR chains after MMS, immunofluorescence)
Format: cell-based
DETAILS: HeLa cells, MMS 50 μg/mL; read-out: PARG Cell IC50 Geomean
# maps each entry to its log10 of IC50
# log10 transformed; quantity=IC50; unit=nM

Solved cases below.
C#CCn1c(=O)n(-c2nnc(C(F)F)s2)c2cc(S(=O)(=O)NC3(CF)CC3)ccc21 [Example 193] :: 1.60
COc1ccc(Cn2c(=O)n(-c3nnc(C)s3)c3cc(S(=O)(=O)NC4(C)CC4)ccc32)cc1 [Example 86] :: 2.44
Cn1c(=O)n(-c2ncns2)c2cc(S(=O)(=O)NC3(C)CC3)ccc21 [Example 98] :: 2.84

Field request: log10 of IC50 | item: CCn1c(=O)n(-c2nnc(C)s2)c2cc(S(=O)(=O)NC3(CF)CC3)ccc21 [Example 159]
2.54

Field request: log10 of IC50 | item: Cc1nnc(-n2c(=O)n(C)c3ccc(S(=O)(=O)NC4(CF)CC4)cc32)s1 [Example 156]
2.77

Field request: log10 of IC50 | item: Cc1nsc(-n2c(=O)n(C)c3cc(F)c(S(=O)(=O)NC4(C)CC4)cc32)n1 [Example 171]
3.19

Field request: log10 of IC50 | item: Cc1nnc(-n2c(=O)n(CCN3CCOCC3)c3ccc(S(=O)(=O)NC4(C)CC4)cc32)s1 [Example 152]
2.29

====

TARGET OF ASSAY: PARG in HeLa cell line (Homo sapiens (Human), UniProt Q86W56)
Sequence (Q86W56 whole entry): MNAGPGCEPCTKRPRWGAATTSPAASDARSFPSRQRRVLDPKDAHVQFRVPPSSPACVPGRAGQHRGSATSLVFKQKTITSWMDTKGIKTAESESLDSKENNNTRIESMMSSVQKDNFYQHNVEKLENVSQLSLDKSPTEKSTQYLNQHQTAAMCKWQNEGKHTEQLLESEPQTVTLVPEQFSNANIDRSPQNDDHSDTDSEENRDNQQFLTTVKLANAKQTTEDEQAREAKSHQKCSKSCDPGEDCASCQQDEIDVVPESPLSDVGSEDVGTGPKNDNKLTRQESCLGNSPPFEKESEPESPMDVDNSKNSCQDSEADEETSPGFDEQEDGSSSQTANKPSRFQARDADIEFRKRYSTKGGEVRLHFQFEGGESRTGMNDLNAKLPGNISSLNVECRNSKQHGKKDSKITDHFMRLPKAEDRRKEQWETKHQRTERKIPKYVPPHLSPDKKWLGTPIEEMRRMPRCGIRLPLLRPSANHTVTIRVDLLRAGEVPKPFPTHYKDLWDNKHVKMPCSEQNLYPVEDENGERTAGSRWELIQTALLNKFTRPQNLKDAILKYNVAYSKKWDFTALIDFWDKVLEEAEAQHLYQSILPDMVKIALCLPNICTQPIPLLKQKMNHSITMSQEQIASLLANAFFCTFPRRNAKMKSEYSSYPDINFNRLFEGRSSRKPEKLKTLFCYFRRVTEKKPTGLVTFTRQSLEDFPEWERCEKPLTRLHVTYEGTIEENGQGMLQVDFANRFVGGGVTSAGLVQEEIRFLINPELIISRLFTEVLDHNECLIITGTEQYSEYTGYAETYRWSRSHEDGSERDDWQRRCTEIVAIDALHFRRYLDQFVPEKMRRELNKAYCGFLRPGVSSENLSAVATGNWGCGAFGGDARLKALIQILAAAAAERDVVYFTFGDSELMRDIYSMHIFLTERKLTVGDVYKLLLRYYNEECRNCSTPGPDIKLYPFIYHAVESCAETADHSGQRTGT
ASSAY NAME: PARG cell assay (nuclear PAR chains after MMS, immunofluorescence)
Format: cell-based
DETAILS: HeLa cells, MMS 50 μg/mL; read-out: PARG Cell IC50 Geomean
pIC50: −log10 of the molar value.
Criterion: pIC50 meeting or surpassing 7. Met: 1.0. Not met: 0.0.

CC1(NS(=O)(=O)c2cc3c(cc2F)n(CCF)c(=O)n3-c2nnc(C(F)F)s2)CC1 :: 1.0
CCn1c(=O)n(-c2nnc(C(F)F)s2)c2cc(S(=O)(=O)NC3(C)CC3)c(F)cc21 :: 1.0
COCCn1c(=O)n(-c2nnc(C)s2)c2cc(S(=O)(=O)NC3(CF)CC3)ccc21 :: 0.0
CCn1c(=O)n(-c2nnc(C(F)F)o2)c2cc(S(=O)(=O)NC3(CF)CC3)ccc21 :: 0.0

Could you verify whether the entry COCCn1c(=O)n(-c2ccc(C)nn2)c2cc(S(=O)(=O)NC3(CF)CC3)c(F)cc21 shows pIC50 of no less than 7?
0.0

Could you verify whether the entry Cn1c(=O)n(-c2nnc(C(F)F)o2)c2cc(S(=O)(=O)NC3(C)CC3)ccc21 shows pIC50 of no less than 7?
0.0

Could you verify whether the entry Cc1cc(Cn2c(=O)n(-c3nnc(C)s3)c3cc(S(=O)(=O)NC4(C)CC4)ccc32)n(C)n1 shows pIC50 of no less than 7?
0.0

Could you verify whether the entry CCn1c(=O)n(-c2nnc(C(F)F)o2)c2cc(S(=O)(=O)NC3(C)CC3)ccc21 shows pIC50 of no less than 7?
0.0

Could you verify whether the entry Cn1c(=O)n(-c2nnc(C(F)F)o2)c2cc(S(=O)(=O)NC3(CF)CC3)c(F)cc21 shows pIC50 of no less than 7?
0.0

Could you verify whether the entry Cc1nnc(-n2c(=O)n(CCC(N)=O)c3ccc(S(=O)(=O)NC4(C)CC4)cc32)s1 shows pIC50 of no less than 7?
0.0

Could you verify whether the entry CCn1c(=O)n(-c2nnc(C)o2)c2cc(S(=O)(=O)NC3(C)CC3)ccc21 shows pIC50 of no less than 7?
0.0

Could you verify whether the entry Cc1nsc(-n2c(=O)n(CC#N)c3ccc(S(=O)(=O)NC4(C)CC4)cc32)n1 shows pIC50 of no less than 7?
0.0
